The entries below are paired with their reported normalized growth.
# ASSAY PROTOCOL: chemical genetic growth profiling, strain panel (AID 1159580);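 note: tested at 20 µM; growth read once vehicle control cultures reached saturation at 30 °C; 1 = growth at the plate median or of vehicle wells; lower values mean less growth of the strain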
# CONDITIONS USED: S. cerevisiae deletion strains, growth OD, locus YFR010W, strain ubp6, active compounds read low
Hit rate of the full screen: of about 5,500 compounds, about 2,000 (36%) were called active. Not shown: some 18% with an inconclusive outcome. The list shows a part of the results.

>  <SMILES REPRESENTATION>
CN(C)C(=O)Nc1ccc(Cl)c(Cl)c1

>  <normalized growth>
0.994

$$$$
>  <SMILES REPRESENTATION>
CC(=O)Nc1ccccc1

>  <normalized growth>
0.96

$$$$
>  <SMILES REPRESENTATION>
O=C(Nc1ccccc1)Nc1ccccc1

>  <normalized growth>
0.987

$$$$
